Consider the following molecules; for each one, report its IC50.
# Tested on: MCF7 cells (breast tumor cells) WT
# ASSAY_EXPLANATION: Test B: cell proliferation/viability assay (CellTiter-Glo) on MCF7 WT
# Format: cell-based
# RECORDED_CONDITIONS: Homo sapiens, MCF7, 168 h, 7 days of compound exposure
# Description: Test B: Cell Proliferation/Viability Assay on MCF7 (Breast Tumor Cells) WT and Mutants Cell Lines Test B involves measuring the in vitro proliferation activity of the compounds of the invention by analyzing the viability of the tumor cells. The measurements of the viability were made using a breast cancer cell viability assay as described hereunder. […] The percent of viability of each sample was determined as follows: (RLU sample−RLU background/RLU untreated−RLU background)*100=% viability.
Answers are plain numbers, in nM.

>  <MOLECULE>
Oc1ccc2c(c1)SCC(c1ccc(OC(F)(F)F)cc1)=C2c1ccc(O[C@H]2CCN(CCCF)C2)nc1 [Example 80]

>  <IC50 / nM>
0.3

$$$$
>  <MOLECULE>
CC(C)(C)OC(=O)Nc1ccc(C2=C(c3ccc(O[C@H]4CCN(CCCF)C4)cc3)c3ccc(O)cc3SC2)c(F)n1 [Example 65]

>  <IC50 / nM>
21

$$$$

Please state IC50 for every molecule in the list that follows.
1. Oc1ccc2c(c1)SCC(c1ccc(Cl)nc1F)=C2c1ccc(O[C@H]2CCN(CCCF)C2)cc1 [Example 55]
2. Cc1cc(C2=C(c3ccc(O[C@H]4CCN(CCCF)C4)cc3)c3ccc(C(=O)O)cc3SCC2)ccc1Cl [Example 211]
3. Oc1ccc2c(c1)CCC(c1ccc(OC(F)(F)F)cc1)=C2c1ccc(O[C@H]2CCN(CCCF)C2)cc1 [Example 12]
4. Oc1ccc2c(c1)OCC(c1ccc(Cl)cc1Cl)=C2c1ccc(O[C@H]2CCN(CCCF)C2)cc1 [Example 81]
5. Cc1c(O)ccc2c1OCCC(c1ccc3cc[nH]c3c1)=C2c1ccc(O[C@H]2CCN(CCCF)C2)cc1 [Example 129]

OUT:
1. 0.7
2. 0.4
3. 1
4. 18
5. 245

Please state IC50 for every molecule in the list that follows.
1. Oc1ccc2c(c1)SCC(c1ccc(O)nc1F)=C2c1ccc(O[C@H]2CCN(CCCF)C2)cc1 [Example 46]
2. Cc1ccc(C2=C(c3ccc(O[C@H]4CCN(CCCF)C4)cc3)c3cc(F)c(O)cc3OCC2)c(F)c1 [Example 138]

OUT:
[0.1, 2]

Please state IC50 for every molecule in the list that follows.
1. Oc1ccc2c(c1)CCCC(c1ccc(Cl)c(F)c1)=C2c1ncc(O[C@H]2CCN(CCCF)C2)cn1 [Example 254]
2. Cc1ccc(C2=C(c3ccc(O[C@H]4CCN(CCCF)C4)cc3)c3cc(Cl)c(O)cc3OCC2)c(F)c1 [Example 145]
3. COc1ccc(C2=C(c3ccc(O[C@H]4CCN(CCCF)C4)cc3)c3ccc(O)cc3SC2)cc1F [Example 23]
4. Oc1cc2c(cc1Cl)C(c1ccc(O[C@H]3CCN(CCCF)C3)cc1)=C(c1ccc3[nH]ccc3c1)CCO2 [Example 144]

OUT:
16
9
7
38

Please state IC50 for every molecule in the list that follows.
1. Oc1ccc2c(c1)SCCC(c1ccc(OCF)cc1)=C2c1ccc(O[C@H]2CCN(CCCF)C2)cc1 [Example 218]
2. CCOc1ccc(C2=C(c3ccc(O[C@H]4CCN(CCCF)C4)cc3)c3ccc(O)cc3OCC2)c(F)c1 [Example 152]
3. COc1ccc(C2=C(c3ccc(O[C@H]4CCN(CCCF)C4)cc3)c3ccc(O)cc3OCC2)c(F)c1 [Example 121]
4. Oc1ccc(C2=C(c3ccc(O[C@H]4CCN(CCCF)C4)cc3)c3ccc(O)cc3OC2)cc1 [Example 83]
5. CCOc1ccc(C2=C(c3ccc(O[C@H]4CCN(CCCF)C4)cc3)c3ccc(O)cc3SC2)c(Cl)c1 [Example 36]
6. CCOc1ccc(C2=C(c3ccc(O[C@H]4CCN(CCCF)C4)nc3)c3ccc(O)cc3SCC2)c(F)n1 [Example 208]

OUT:
[0.1, 0.5, 0.3, 2, 0.5, 0.2]

###

# TARGET_OR_TEST_SYSTEM: His6-ERα298-554 D538G mutant (ERα ligand-binding domain) (Homo sapiens (Human), UniProt P03372, D538G)
# Sequence (P03372 298-554 D538G): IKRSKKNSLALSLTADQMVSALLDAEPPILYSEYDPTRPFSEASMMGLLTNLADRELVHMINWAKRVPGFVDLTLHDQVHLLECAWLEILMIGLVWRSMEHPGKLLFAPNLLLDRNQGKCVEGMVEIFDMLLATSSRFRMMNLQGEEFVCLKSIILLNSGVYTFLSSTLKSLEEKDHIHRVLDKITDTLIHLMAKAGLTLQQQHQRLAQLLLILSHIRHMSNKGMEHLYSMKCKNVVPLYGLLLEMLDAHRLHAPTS
# ASSAY_EXPLANATION: Test A: biochemical antagonist activity, LanthaScreen TR-FRET ERα coactivator assay, D538G mutant
# RECORDED_CONDITIONS: protocol with 3 nM estradiol; read-out: Antagonism D538G IC50
MEASURE: pIC50
Answers are plain numbers, as −log10 of the molar value.

>  <STRUCTURE_AS_SMILES>
Oc1ccc2c(c1)SCC(c1ccc(Cl)cc1Cl)=C2c1ccc(O[C@H]2CCN(CCCF)C2)cc1

>  <MEASURE>
pIC50

>  <MEASUREMENT>
7.33

$$$$
>  <STRUCTURE_AS_SMILES>
Cc1cc(C2=C(c3ccc(O[C@H]4CCN(CCCF)C4)cc3)c3ccc(O)cc3SC2)ccc1Cl

>  <MEASURE>
pIC50

>  <MEASUREMENT>
7.41

$$$$
>  <STRUCTURE_AS_SMILES>
Oc1ccc2c(c1)OCCC(c1ccc3occc3c1)=C2c1ccc(O[C@H]2CCN(CCCF)C2)cc1

>  <MEASURE>
pIC50

>  <MEASUREMENT>
8.15

$$$$
>  <STRUCTURE_AS_SMILES>
Cc1c(Cl)cccc1C1=C(c2ccc(O[C@H]3CCN(CCCF)C3)cc2)c2ccc(O)c(C)c2OCC1

>  <MEASURE>
pIC50

>  <MEASUREMENT>
6.08

$$$$
>  <STRUCTURE_AS_SMILES>
Oc1ccc(C2=C(c3ccc(O[C@H]4CCN(CCCF)C4)cc3)c3ccc(O)cc3OCC2)c(F)c1

>  <MEASURE>
pIC50

>  <MEASUREMENT>
8.00

$$$$

Please state pIC50 for every compound in the list that follows.
1. Oc1ccc(C2=C(c3ccc(O[C@H]4CCN(CCCF)C4)cc3)c3cc(O)ccc3SCC2)cc1
2. Cc1ccc(C2=C(c3ccc(O[C@H]4CCN(CCCF)C4)cc3)c3ccc(O)c(F)c3OCC2)c(F)c1
3. CCOc1ccc(C2=C(c3ccc(O[C@H]4CCN(CCCF)C4)cc3)c3ccc(O)cc3OCC2)c(C)c1
4. Oc1ccc(C2=C(c3ccc(O[C@H]4CCN(CCCF)C4)cc3)c3cc(O)ccc3CC2)c(F)c1
5. Oc1ccc2c(c1)SCCC(c1ccc3occc3c1)=C2c1ccc(O[C@H]2CCN(CCCF)C2)cc1
6. Oc1ccc2c(c1)OCCC(c1cccc(F)c1Cl)=C2c1ccc(O[C@H]2CCN(CCCF)C2)cc1
7. Oc1ccc2c(c1)SCCC(c1ccc(Cl)c(F)c1)=C2c1ccc(O[C@H]2CCN(CCCF)C2)cc1

OUT:
7.39
7.51
8.00
7.89
8.22
7.37
7.51

IN: Which pIC50 value is on record for `Oc1ccc2c(c1F)CCCC(c1ccc(Cl)cc1Cl)=C2c1ccc(O[C@H]2CCN(CCCF)C2)nc1` ?
OUT: 8.40

###

# TARGET_OR_TEST_SYSTEM: ERα in MCF7 cells (Homo sapiens (Human), UniProt P03372)
# Sequence (P03372 whole entry): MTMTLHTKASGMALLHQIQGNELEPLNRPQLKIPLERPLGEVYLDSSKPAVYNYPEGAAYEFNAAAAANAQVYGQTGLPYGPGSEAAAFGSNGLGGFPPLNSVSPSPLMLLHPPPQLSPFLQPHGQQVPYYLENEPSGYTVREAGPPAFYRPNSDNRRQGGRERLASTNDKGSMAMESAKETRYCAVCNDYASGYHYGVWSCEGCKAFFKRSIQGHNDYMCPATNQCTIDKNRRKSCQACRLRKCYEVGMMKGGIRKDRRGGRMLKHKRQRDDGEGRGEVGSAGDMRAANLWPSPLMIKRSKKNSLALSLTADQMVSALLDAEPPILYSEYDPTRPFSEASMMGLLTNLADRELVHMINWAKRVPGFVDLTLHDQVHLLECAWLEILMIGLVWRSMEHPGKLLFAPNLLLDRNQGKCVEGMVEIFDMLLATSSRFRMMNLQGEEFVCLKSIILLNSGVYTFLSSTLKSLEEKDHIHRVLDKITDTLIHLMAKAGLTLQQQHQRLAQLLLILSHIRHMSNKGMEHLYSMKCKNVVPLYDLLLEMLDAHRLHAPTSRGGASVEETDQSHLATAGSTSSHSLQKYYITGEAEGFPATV
# ASSAY_EXPLANATION: Test C: estrogen receptor degradation activity, ERα in cell western assay in MCF7 cells
# Type: cell-based
# RECORDED_CONDITIONS: at 3 μM, 4 hours, relative to fulvestrant
Consider the following compounds; for each one, report its % Degradation at 3 μM.
Give me the value, and tack the unit on after it.

// below: answered compounds
>  <STRUCTURE_AS_SMILES>
Oc1ccc2c(c1)CCCC(c1ccc(Cl)cc1Cl)=C2c1ccc(N[C@H]2CCN(CCCF)C2)cc1

>  <MEASUREMENT>
86%

$$$$
>  <STRUCTURE_AS_SMILES>
Oc1ccc2c(c1)SCCC(c1ccc(F)nc1F)=C2c1ccc(O[C@H]2CCN(CCCF)C2)cc1

>  <MEASUREMENT>
93%

$$$$
>  <STRUCTURE_AS_SMILES>
Nc1ccc(C2=C(c3ccc(O[C@H]4CCN(CCCF)C4)cc3)c3ccc(O)cc3SC2)c(F)n1

>  <MEASUREMENT>
91%

$$$$

IN: Which % Degradation at 3 μM value is on record for `Oc1ccc2c(c1)SCC(c1ccc(OC(F)(F)F)cc1)=C2c1ccc(O[C@H]2CCN(CCCF)C2)cc1` ?
OUT: 74%

###

# TARGET_OR_TEST_SYSTEM: ERα in MCF7 cells (Homo sapiens (Human), UniProt P03372)
# ASSAY_EXPLANATION: Test C: estrogen receptor degradation activity, ERα in cell western assay in MCF7 cells
# Assay type: cell-based
# RECORDED_CONDITIONS: at 3 μM, 4 hours, relative to fulvestrant
# Experimental: Test C: Estrogen Receptor Degradation Activity Test C involves measuring the in vitro degradation activity of the compounds of the invention. […] MCF7 cells (ATCC) were seeded in 384 wells microplate (collagen coated) at concentration of >9990 cells/30 μL per well in red phenol free MEM alpha medium (invitrogen) containing 5% charcoal dextran striped FBS. […] Integrated intensities in the green fluorescence and red fluorescence were measured to determine the levels of ERα and DNA respectively.
Consider the following compounds; for each one, report its % Degradation at 3 μM.

// below: answered compounds
>  <COMPOUND>
Cc1cc(C2=C(c3ccc(O[C@H]4CCN(CCCF)C4)cc3)c3ccc(O)cc3SCC2)ccc1Cl

>  <% Degradation at 3 μM>
90%

$$$$
>  <COMPOUND>
CC1Cc2cc(C3=C(c4ccc(O[C@H]5CCN(CCCF)C5)cc4)c4ccc(O)cc4SCC3)ccc2O1 (stereo partly shown)

>  <% Degradation at 3 μM>
88%

$$$$
>  <COMPOUND>
Oc1ccc2c(c1)SCCC(c1cccc(F)c1Cl)=C2c1ccc(O[C@H]2CCN(CCCF)C2)cc1

>  <% Degradation at 3 μM>
86%

$$$$
>  <COMPOUND>
CC(C)(C)c1ccc(C2=C(c3ccc(O[C@H]4CCN(CCCF)C4)cc3)c3ccc(O)cc3SC2)cc1

>  <% Degradation at 3 μM>
84%

$$$$
>  <COMPOUND>
Cc1ccc(C2=C(c3ccc(O[C@H]4CCN(CCCF)C4)cc3)c3ccc(O)cc3SCC2)c(F)c1

>  <% Degradation at 3 μM>
91%

$$$$
>  <COMPOUND>
Oc1ccc2c(c1)C(c1ccc(O[C@H]3CCN(CCCF)C3)cc1)=C(c1ccc(SC(F)(F)F)cc1)CC2

>  <% Degradation at 3 μM>
79%

$$$$

Let's switch to this compound now.
IN: Which % Degradation at 3 μM value is on record for `Oc1ccc2c(c1)OCCC(c1ccc(Cl)cc1Cl)=C2c1ccc(O[C@H]2CCN(CCCF)C2)cc1` ?
OUT: 87%
